- SUBJECT_OF_TEST: human recombinant CTSC (Homo sapiens (Human), UniProt P53634)
- Sequence (P53634 25-134): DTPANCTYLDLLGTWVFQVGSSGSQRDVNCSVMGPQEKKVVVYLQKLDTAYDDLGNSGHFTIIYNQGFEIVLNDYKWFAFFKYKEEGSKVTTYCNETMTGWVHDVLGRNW
- Sequence (P53634 231-394): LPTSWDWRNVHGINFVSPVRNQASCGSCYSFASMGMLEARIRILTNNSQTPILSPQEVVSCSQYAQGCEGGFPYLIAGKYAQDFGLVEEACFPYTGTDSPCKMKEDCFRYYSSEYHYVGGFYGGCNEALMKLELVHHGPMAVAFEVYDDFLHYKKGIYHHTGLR
- Sequence (P53634 395-463): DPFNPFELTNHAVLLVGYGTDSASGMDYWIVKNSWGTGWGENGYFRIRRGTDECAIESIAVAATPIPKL
- RUN_DESCRIPTION: CTSC inhibition assay (in vitro), fluorescent substrate GF-AFC
- Type: biochemical
- RUN_PARAMETERS: 30 μmol/L GF-AFC, pH 5.0, 25° C.
Measured log10 IC50 by item
Hello, just confirming the data are log10 of IC50 with units of nM.

CC(=O)N(C)C1(c2nc(C3CC(F)(F)C3)no2)CCN(C(=O)[C@@H]2C[C@@H](O)C3(CCC3)CN2)CC1 [Example 77] : 0.58
O=C([C@@H]1CC[C@@]2(CCO2)CN1)N1CCC(c2nc(C3CCC(F)(F)CC3)no2)(C(F)(F)F)CC1 [Example 11] : 0.89
O=C([C@@H]1C[C@@H](O)C2(CCC2)CN1)N1CCC(C(=O)N2CC[C@@H](C(F)(F)F)C2)(C(F)(F)F)CC1 [Example 52] : 0.91
O=C([C@@H]1C[C@@H](O)C2(CCC2)CN1)N1CCC(c2nnn(Cc3ccccc3)n2)CC1 [Example 102] : 0.98
O=C([C@@H]1C[C@@H](O)C2(CCC2)CN1)N1CCC(c2noc(C3CCCCO3)n2)(C(F)(F)F)CC1 (stereo partly shown) [Example 59] : 0.56
O=C([C@@H]1C[C@@H](O)C2(CCC2)CN1)N1CCC(c2noc(C3CCC(F)(F)CC3)n2)(C(F)(F)F)CC1 [Example 31] : -0.51

Looking for the measured log10 IC50 of O=C([C@@H]1C[C@@H](O)C2(CCC2)CN1)N1CCC(c2nccc(-n3cc(F)cn3)n2)CC1 [Example 99] , can you help?
0.62

For the compound shown here, CC(C)C1(c2noc(C3CCC(F)(F)CC3)n2)CCN(C(=O)C2CCC(C)(C)CN2)CC1 (stereo not shown) [Example 41] , give the reported log10 IC50.
1.27

Field request: log10 IC50 | item: O=C([C@@H]1C[C@@H](O)C2(CCC2)CN1)N1CCC(c2nnn(C3CCC(F)(F)CC3)n2)(C(F)(F)F)CC1 [Example 66]
0.02
